Target: rat hepatic microsomal HMG CoA reductase (Rattus norvegicus)
Construct: rat hepatic microsomal HMG CoA reductase activity in vitro; from tissue; host or cells: rat liver microsomes
Sequence (P51639 1-887): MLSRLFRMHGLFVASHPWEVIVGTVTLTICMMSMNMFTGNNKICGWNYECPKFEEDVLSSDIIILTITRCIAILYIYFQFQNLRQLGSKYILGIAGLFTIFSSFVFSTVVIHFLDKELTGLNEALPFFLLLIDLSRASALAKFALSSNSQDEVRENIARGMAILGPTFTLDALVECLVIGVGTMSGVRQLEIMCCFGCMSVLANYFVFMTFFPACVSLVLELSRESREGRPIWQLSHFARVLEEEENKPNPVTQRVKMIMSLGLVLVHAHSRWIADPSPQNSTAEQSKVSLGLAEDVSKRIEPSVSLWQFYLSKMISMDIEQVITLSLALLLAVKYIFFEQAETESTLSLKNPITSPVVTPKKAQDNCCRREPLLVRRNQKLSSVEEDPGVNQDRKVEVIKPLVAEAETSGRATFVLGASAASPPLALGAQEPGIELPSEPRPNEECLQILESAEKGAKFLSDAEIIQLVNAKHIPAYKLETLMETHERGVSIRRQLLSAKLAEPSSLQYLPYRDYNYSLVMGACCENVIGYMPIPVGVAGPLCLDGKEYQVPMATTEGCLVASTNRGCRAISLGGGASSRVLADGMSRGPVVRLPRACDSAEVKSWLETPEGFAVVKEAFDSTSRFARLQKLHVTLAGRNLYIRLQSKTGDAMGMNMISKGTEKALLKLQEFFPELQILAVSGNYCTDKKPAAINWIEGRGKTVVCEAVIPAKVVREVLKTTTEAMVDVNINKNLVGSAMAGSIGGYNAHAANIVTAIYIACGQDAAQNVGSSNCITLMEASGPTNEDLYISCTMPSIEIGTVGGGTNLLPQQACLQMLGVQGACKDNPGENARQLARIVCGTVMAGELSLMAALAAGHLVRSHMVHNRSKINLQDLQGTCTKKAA
Assay: inhibition of rat hepatic microsomal HMG CoA reductase activity in vitro
Assay type: biochemical
Conditions: 0.082 micrograms/ml
From the text: In the table the concentrations of the test compounds are expressed in micrograms/ml.
I'd appreciate it if you could supply inhibition at 0.082 µg/mL values for the items below.
Field note: include the unit after the figure.

Solved entries:
CC(C)c1c(/C=C/[C@@H](O)C[C@@H](O)CC(=O)O)c(-c2ccc(F)cc2)c2c3ccccc3cnn12 (relative stereo) : 58%
CC(C)c1c(/C=C/C(O)CC(O)CC(=O)O)c(-c2ccc(F)cc2)c2c3ccccc3cnn12 (stereo not shown) : 50%
CCOC(=O)C[C@H](O)C[C@H](O)/C=C/c1c(-c2ccc(F)cc2)c2c3ccccc3cnn2c1C(C)C (relative stereo) : 33%

# query: inhibition at 0.082 µg/mL of entry CC(C)c1c(/C=C/[C@@H](O)C[C@H](O)CC(=O)O)c(-c2ccc(F)cc2)c2c3ccccc3cnn12 (relative stereo) 34%

FYI, the data here is from patent US4960775A.
